target_of_assay: FN-EIIIB
Sequence (chain, as listed by the source): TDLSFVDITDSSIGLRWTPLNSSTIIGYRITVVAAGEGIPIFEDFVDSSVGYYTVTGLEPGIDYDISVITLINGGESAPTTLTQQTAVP
protocol_summary: BLI
Recorded Kd for the following binders
Give the value, in units of nM, as a plain number.

See these solved cases before continuing.
binder	endpoint_name	units_of_measure	value
LMJ2.4C (VHH, sortase-tagged with biotin in the Western blots ; Purified by a his-tag for BLI and sortase-tagged with biotin in the Western blots. The tag letters are not stated for the free nanobody, so they are left out.) VHH: QVQLVEAGGGLVQAGGSLRLSCAASGSTFSHSAGGWYRQAPEKQRELVAGIRSDGNINYADSVKDRFTISRDNASNTMYLQMNNLKPEDTAVYVCNIRGSYGNTYYSRWGQGIQVTVSS	Kd	nM	0.0626
LMJ2.6A (VHH, sortase-tagged with biotin in the Western blots ; Purified by a his-tag for BLI and sortase-tagged with biotin in the Western blots. The tag letters are not stated for the free nanobody, so they are left out.) VHH: RVQLVETGGGLVQAGGSLRLSCAVSGRTFSHSAGGWYRQAPEKQRELVAGIRSDGNINYADSVKDRFTISRDNASNTMYLQMNNLKPGDTAVYVCNIRGSYGNTYYSRWGQGTQVTVSS	Kd	nM	0.344

The value of Kd measured for the binder LMJ1.3J (VHH, sortase-tagged with biotin in the Western blots ; Purified by a his-tag for BLI and sortase-tagged with biotin in the Western blots. The tag letters are not stated for the free nanobody, so they are left out.) VHH: QVQLVGTGGGLVQAGGSLRLSCAASGSTFSHSAGGWYRQAPEKQRELVAGISSAGNINYADSVKDRFTISRDNASNTMYLQMNNLKPEDTAVYVCNIRGSYGNTYYSRWGQGTQVTVSS turned out to be 0.402
